Target Of Assay: Trp-p8 (Homo sapiens, UniProt Q7Z2W7, T58I)
Construct: expressed in transfected cells
Sequence (Q7Z2W7 whole entry T58I): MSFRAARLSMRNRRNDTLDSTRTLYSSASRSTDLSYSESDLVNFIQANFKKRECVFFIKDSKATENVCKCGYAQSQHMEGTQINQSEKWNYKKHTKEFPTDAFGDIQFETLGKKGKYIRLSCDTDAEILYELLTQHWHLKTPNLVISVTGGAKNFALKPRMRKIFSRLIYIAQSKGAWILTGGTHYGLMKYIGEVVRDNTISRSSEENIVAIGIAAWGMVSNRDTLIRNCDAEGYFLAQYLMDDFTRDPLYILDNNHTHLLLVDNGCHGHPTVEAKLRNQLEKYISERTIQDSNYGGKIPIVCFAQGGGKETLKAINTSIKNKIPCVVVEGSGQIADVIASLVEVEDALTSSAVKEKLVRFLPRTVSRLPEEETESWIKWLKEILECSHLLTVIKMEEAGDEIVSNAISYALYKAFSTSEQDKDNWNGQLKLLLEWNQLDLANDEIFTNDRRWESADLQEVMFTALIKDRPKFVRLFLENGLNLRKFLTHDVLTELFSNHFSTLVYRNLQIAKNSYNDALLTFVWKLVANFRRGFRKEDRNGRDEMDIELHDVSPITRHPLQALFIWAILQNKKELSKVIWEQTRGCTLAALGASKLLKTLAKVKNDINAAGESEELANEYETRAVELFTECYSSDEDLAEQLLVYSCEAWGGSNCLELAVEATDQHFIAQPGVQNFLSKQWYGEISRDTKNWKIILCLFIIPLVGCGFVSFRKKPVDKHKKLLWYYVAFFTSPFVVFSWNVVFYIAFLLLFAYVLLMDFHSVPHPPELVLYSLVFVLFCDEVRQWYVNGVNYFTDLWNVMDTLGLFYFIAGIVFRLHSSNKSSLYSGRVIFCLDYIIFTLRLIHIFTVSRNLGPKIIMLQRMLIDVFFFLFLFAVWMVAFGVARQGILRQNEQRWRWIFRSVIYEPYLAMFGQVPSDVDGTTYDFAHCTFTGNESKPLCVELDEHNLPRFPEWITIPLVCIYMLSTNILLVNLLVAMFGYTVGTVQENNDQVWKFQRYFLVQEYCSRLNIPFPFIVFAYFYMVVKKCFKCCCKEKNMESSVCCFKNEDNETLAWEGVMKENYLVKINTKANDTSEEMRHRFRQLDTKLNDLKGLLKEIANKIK
Protocol Details: Cell viability (ATP) assay for Trp-p8 antagonists: protection of CHO/Trp-p8 cells from toxic control agonist D-1607
Assay type: cell-based
Conditions Used: Table 2, Formula VIII antagonists; 10 μM compound plus toxic concentration of control agonist D-1607, CHO/Trp-p8 cells, 37° C.; ATP level relative to DMSO
Experimental: FIG. 4 is a graph depicting exemplary results from a primary screen for Trp-p8 antagonists using the ATP viability assay, described herein, with CHO/Trp-p8 cells at 37° C. CHO/Trp-p8 cells were exposed to compounds, at different concentrations, in 1% DMSO or 1% DMSO in combination with a toxic concentration of the Trp-p8 agonist 1607. The viability of cells was measured after 24-26 hours at 37° C. using the ATP assay. […]
Observation Type: Relative Viability (%) at 10 μM
Supply the numeric figure in %, leaving out any unit text.

See these solved cases before continuing.
INSERT INTO assay_data (compound, readout_unit, quantitative_result) VALUES
  ('CC(C)[C@@H]1CC[C@@H](C)C[C@H]1NC(=O)SCc1ccccc1Cl [compound 2306]', '%', 92),
  ('CC(C)[C@@H]1CC[C@@H](C)C[C@H]1OCC(=O)N1CCn2cccc2C1C (some centres unmarked) [compound 1918]', '%', 94),
  ('CC(C)[C@@H]1CC[C@@H](C)C[C@H]1OC(=O)N1CCc2ccccc2C1 [compound 1457]', '%', 112),
  ('CCc1ccc(-c2n[nH]cc2CN[C@@H]2C[C@H](C)CC[C@H]2C(C)C)cc1 [compound 2754]', '%', 74),
  ('CC(C)[C@@H]1CC[C@@H](C)C[C@H]1NS(=O)(=O)c1cc(Br)c(Br)s1 [compound 2134]', '%', 63),
  ('CC(C)[C@@H]1CC[C@@H](C)C[C@H]1OCC(=O)NCc1ccccc1Cl [compound 1669]', '%', 86),
  ('CC(C)[C@@H]1CC[C@@H](C)CC1C(=O)N1c2ccccc2CC1C (some centres unmarked) [compound 1588]', '%', 88),
  ('COc1ccccc1NC(=O)CO[C@@H]1C[C@H](C)CC[C@H]1C(C)C [compound 1709]', '%', 95);

Data request: Fill in the blank: the reported Relative Viability (%) at 10 μM of CCN(CCNC(=O)CO[C@@H]1C[C@H](C)CC[C@H]1C(C)C)c1cccc(C)c1 [compound 1937] is ____.
Data returned: 101

Data request: Entry CC(C)[C@@H]1CC[C@@H](C)C[C@H]1NC(=O)NCCN1CCCc2ccccc21 [compound 1815] has what Relative Viability (%) at 10 μM?
Data returned: 87

Data request: Which Relative Viability (%) at 10 μM is reported for this compound? CC(C)[C@@H]1CC[C@@H](C)C[C@H]1OC(=O)N1CCCc2ccccc21 [compound 1465]
Data returned: 90
